Details: 303.15 K; 101.33 kPa; Liquid; Concentric cylinders viscometry
Parameter viscosity: see the listing below.
Please give a number only; it is taken to be in mPa·s.

Completed entries (count: 3):
COMPOUND	UNIT_INFO	viscosity
CCC[NH+](C)C.O=S(=O)([O-])C(F)(F)F [N,N-dimethylpropan-1-aminium trifluoromethanesulfonate]	mPa·s	33.2
CC[NH+](C)CC.O=S(=O)([O-])C(F)(F)F [diethylmethylammonium trifluoromethanesulfonate]	mPa·s	36.9
C=CC[NH+](CC)CC.O=S(=O)([O-])C(F)(F)F [N,N-diethylprop-2-en-1-aminium trifluoromethanesulfonate]	mPa·s	51

QUERY: What value of viscosity has been recorded for this entry: C=CC[NH+](C)C.O=S(=O)([O-])C(F)(F)F [N,N-dimethylprop-2-en-1-aminium trifluoromethanesulfonate]
RESULT: 28.8
